# Tested on: Quadruplex DNA
# assay_remarks: Induction of conformational changes in human telomeric G-quadruplex DNA assessed as inversion from potassium ion stabilized hybrid type mixed parallel/antiparallel G-quadruplex to stable telomere parallel-stranded G-quadruplex after 5 mins in presence of KCl by CD spectroscopic method
# Format: nucleic-acid assay
Calls of active or inactive are those of the source. The rule behind the calls is not given here.
Hi there, use one of these labels in your reply, thanks! active, inactive

The following compounds have reported results that may help.
INSERT INTO measurements (smi, label) VALUES
  ('CCn1c2ccc(-c3nc4ccc(N5CCN(CCO)CC5)cc4[nH]3)cc2c2cc(-c3nc4ccc(N5CCN(CCO)CC5)cc4[nH]3)ccc21', 'active'),
  ('CN1CCN(CCCCn2c3ccc(-c4nc5cc(N6CCN(CCO)CC6)ccc5[nH]4)cc3c3cc(-c4nc5cc(N6CCN(CCO)CC6)ccc5[nH]4)ccc32)CC1', 'active'),
  ('C[N+]1(CCCCN2CCOCC2)CCN(CCCCn2c3ccc(-c4nc5ccc(N6CCOCC6)cc5[nH]4)cc3c3cc(-c4nc5ccc(N6CCOCC6)cc5[nH]4)ccc32)CC1', 'inactive'),
  ('CN1CCN(CCCCn2c3ccc(-c4nc5cc(N6CCOCC6)ccc5[nH]4)cc3c3cc(-c4nc5cc(N6CCOCC6)ccc5[nH]4)ccc32)CC1', 'inactive');

Any idea what this test logged for `CN(C)CCCCn1c2ccc(-c3nc4ccc(N5CCN(CCO)CC5)cc4[nH]3)cc2c2cc(-c3nc4ccc(N5CCN(CCO)CC5)cc4[nH]3)ccc21` ?
active

* * *

Exercise: for every item that follows, state its recorded DC50.
# test_system: Quadruplex DNA
# assay_remarks: Displacement of thiazole orange from human telomeric G-quadruplex DNA after 5 mins in presence of KCl by fluorescence assay
# Format: nucleic-acid assay
Give bare numbers, in µM.

INSERT INTO measurements (smi, measured_quantity, output_unit, recorded_number) VALUES
  ('C[n+]1ccc(-c2c3nc(c(-c4cc[n+](C)cc4)c4ccc([nH]4)c(-c4cc[n+](C)cc4)c4nc(c(-c5cc[n+](C)cc5)c5ccc2[nH]5)C=C4)C=C3)cc1', 'DC50', 'µM', 0.47);

# get_value(readout='DC50', item= `CCn1c2ccc(-c3nc4ccc(N5CCN(CCO)CC5)cc4[nH]3)cc2c2cc(-c3nc4ccc(N5CCN(CCO)CC5)cc4[nH]3)ccc21` )
2.79

* * *

# test_system: Quadruplex DNA
# assay_remarks: Displacement of thiazole orange from human c-Kit1 G-quadruplex DNA after 5 mins in presence of KCl by fluorescence assay
# Format: nucleic-acid assay
measured_quantity: DC50 (nM)
Numbers only, in nM.

INSERT INTO assay_data (smi, measured_quantity, recorded_number) VALUES
  ('CN(C)CCCCn1c2ccc(-c3nc4ccc(N5CCN(CCO)CC5)cc4[nH]3)cc2c2cc(-c3nc4ccc(N5CCN(CCO)CC5)cc4[nH]3)ccc21', 'DC50', 860),
  ('CN1CCN(CCCCn2c3ccc(-c4nc5cc(N6CCN(CCO)CC6)ccc5[nH]4)cc3c3cc(-c4nc5cc(N6CCN(CCO)CC6)ccc5[nH]4)ccc32)CC1', 'DC50', 880),
  ('CCn1c2ccc(-c3nc4ccc(N5CCN(CCO)CC5)cc4[nH]3)cc2c2cc(-c3nc4ccc(N5CCN(CCO)CC5)cc4[nH]3)ccc21', 'DC50', 1620),
  ('CN1CCN(CCCCn2c3ccc(-c4nc5cc(N6CCOCC6)ccc5[nH]4)cc3c3cc(-c4nc5cc(N6CCOCC6)ccc5[nH]4)ccc32)CC1', 'DC50', 980);

Given `C[n+]1ccc(-c2c3nc(c(-c4cc[n+](C)cc4)c4ccc([nH]4)c(-c4cc[n+](C)cc4)c4nc(c(-c5cc[n+](C)cc5)c5ccc2[nH]5)C=C4)C=C3)cc1` , state its recorded DC50.
320

* * *

So I've got a bunch of compounds here, and I need their DC50 values.
# test_system: Quadruplex DNA
# assay_remarks: Displacement of thiazole orange from human VEGF G-quadruplex DNA after 5 mins in presence of KCl by fluorescence assay
# Format: nucleic-acid assay
Answers are plain numbers, in nM.

Answered examples (2):
INSERT INTO measurements (smi, recorded_number) VALUES
  ('CN1CCN(CCCCn2c3ccc(-c4nc5cc(N6CCOCC6)ccc5[nH]4)cc3c3cc(-c4nc5cc(N6CCOCC6)ccc5[nH]4)ccc32)CC1', 630),
  ('CN1CCN(CCCCn2c3ccc(-c4nc5cc(N6CCN(CCO)CC6)ccc5[nH]4)cc3c3cc(-c4nc5cc(N6CCN(CCO)CC6)ccc5[nH]4)ccc32)CC1', 750);

# map each compound to its DC50
1. CN(C)CCCCn1c2ccc(-c3nc4ccc(N5CCN(CCO)CC5)cc4[nH]3)cc2c2cc(-c3nc4ccc(N5CCN(CCO)CC5)cc4[nH]3)ccc21
2. C[n+]1ccc(-c2c3nc(c(-c4cc[n+](C)cc4)c4ccc([nH]4)c(-c4cc[n+](C)cc4)c4nc(c(-c5cc[n+](C)cc5)c5ccc2[nH]5)C=C4)C=C3)cc1

1: 780; 2: 310

Hi! What's the reported DC50 for `CCn1c2ccc(-c3nc4ccc(N5CCN(CCO)CC5)cc4[nH]3)cc2c2cc(-c3nc4ccc(N5CCN(CCO)CC5)cc4[nH]3)ccc21` on Quadruplex DNA?
1420

* * *

Please provide measured ΔTm for the entries that follow.
# System: Quadruplex DNA
# assay_remarks: Binding affinity to human VEGF G-quadruplex DNA assessed as change in melting temperature in presence of KCl by CD spectroscopic method; also: test concentration or dose not given here
# Format: nucleic-acid assay
Answers are plain numbers, in °C.

INSERT INTO measurements (smi, measured_quantity, output_unit, recorded_number) VALUES
  ('CN1CCN(CCCCn2c3ccc(-c4nc5cc(N6CCOCC6)ccc5[nH]4)cc3c3cc(-c4nc5cc(N6CCOCC6)ccc5[nH]4)ccc32)CC1', 'ΔTm', '°C', 14.2);

Hi team, please reply with ΔTm for each item in this list.
1. C[N+]1(CCCCN2CCOCC2)CCN(CCCCn2c3ccc(-c4nc5ccc(N6CCOCC6)cc5[nH]4)cc3c3cc(-c4nc5ccc(N6CCOCC6)cc5[nH]4)ccc32)CC1
2. C[n+]1ccc(-c2c3nc(c(-c4cc[n+](C)cc4)c4ccc([nH]4)c(-c4cc[n+](C)cc4)c4ccc([nH]4)c(-c4cc[n+](C)cc4)c4nc2C=C4)C=C3)cc1
3. CN1CCN(CCCCn2c3ccc(-c4nc5cc(N6CCN(CCO)CC6)ccc5[nH]4)cc3c3cc(-c4nc5cc(N6CCN(CCO)CC6)ccc5[nH]4)ccc32)CC1
4. CCn1c2ccc(-c3nc4ccc(N5CCN(CCO)CC5)cc4[nH]3)cc2c2cc(-c3nc4ccc(N5CCN(CCO)CC5)cc4[nH]3)ccc21
5. CN(C)CCCCn1c2ccc(-c3nc4ccc(N5CCN(CCO)CC5)cc4[nH]3)cc2c2cc(-c3nc4ccc(N5CCN(CCO)CC5)cc4[nH]3)ccc21

[4.35, 12.3, 14.2, 12.8, 11.3]

* * *

# Test system: MCF7
# assay_remarks: Cytotoxicity against human MCF7 cells assessed as reduction in cell viability after 72 hrs by MTT assay
# Format: functional, cell-based
# cond: MCF7, 72 h
measured_quantity: pIC50
One number for each entry, as −log10 of the molar value.

For the compound shown here, `CN(C)CCCCn1c2ccc(-c3nc4ccc(N5CCN(CCO)CC5)cc4[nH]3)cc2c2cc(-c3nc4ccc(N5CCN(CCO)CC5)cc4[nH]3)ccc21` , give the reported pIC50.
4.94

* * *

# System: Quadruplex DNA
# assay_remarks: Binding affinity to human telomeric G-quadruplex DNA assessed as change in melting temperature in presence of KCl by CD spectroscopic method; also: test concentration or dose not given here
# Type: nucleic-acid assay
measured_quantity: ΔTm (°C)
Give bare numbers, in °C.

# example entries with known answers
INSERT INTO measurements (smi, output_unit, recorded_number) VALUES
  ('CN1CCN(CCCCn2c3ccc(-c4nc5cc(N6CCN(CCO)CC6)ccc5[nH]4)cc3c3cc(-c4nc5cc(N6CCN(CCO)CC6)ccc5[nH]4)ccc32)CC1', '°C', 21.2),
  ('CN(C)CCCCn1c2ccc(-c3nc4ccc(N5CCN(CCO)CC5)cc4[nH]3)cc2c2cc(-c3nc4ccc(N5CCN(CCO)CC5)cc4[nH]3)ccc21', '°C', 21.3),
  ('CCn1c2ccc(-c3nc4ccc(N5CCN(CCO)CC5)cc4[nH]3)cc2c2cc(-c3nc4ccc(N5CCN(CCO)CC5)cc4[nH]3)ccc21', '°C', 9.74);

Required: ΔTm, one value per compound below.
1. C[N+]1(CCCCN2CCOCC2)CCN(CCCCn2c3ccc(-c4nc5ccc(N6CCOCC6)cc5[nH]4)cc3c3cc(-c4nc5ccc(N6CCOCC6)cc5[nH]4)ccc32)CC1
2. C[n+]1ccc(-c2c3nc(c(-c4cc[n+](C)cc4)c4ccc([nH]4)c(-c4cc[n+](C)cc4)c4ccc([nH]4)c(-c4cc[n+](C)cc4)c4nc2C=C4)C=C3)cc1
3. CN1CCN(CCCCn2c3ccc(-c4nc5cc(N6CCOCC6)ccc5[nH]4)cc3c3cc(-c4nc5cc(N6CCOCC6)ccc5[nH]4)ccc32)CC1

[7.14, 15.6, 16.9]

Values from ChEMBL document CHEMBL4196021
